experiment: Selectivity index, ratio of IC50 for human MCF10A cells to IC50 for human MCF7 cells; assay type: toxicity; conditions: MCF10A cells versus MCF7 cells, read-out: Ratio IC50
reported.metric: selectivity ratio
Give the figure only, with no unit attached.

>  <mol.smiles>
C#CCNC(=O)[C@H](CC)[C@H]1CC[C@H](C)[C@H]([C@@H](C)[C@H](O)[C@H](C)C(=O)[C@H](CC)[C@H]2O[C@]3(C=C[C@@H](OC(C)=O)[C@]4(CC[C@@](C)([C@H]5CC[C@](O)(CC)[C@H](C)O5)O4)O3)[C@H](C)C[C@@H]2C)O1

>  <selectivity ratio>
16

$$$$

The compound listed as CC[C@@H](C(=O)[C@@H](C)[C@@H](O)[C@H](C)[C@@H]1O[C@@H]([C@@H](CC)C(=O)NCCc2ccc(F)cc2)CC[C@@H]1C)[C@H]1O[C@]2(C=C[C@@H](O)[C@]3(CC[C@@](C)([C@H]4CC[C@](O)(CC)[C@H](C)O4)O3)O2)[C@H](C)C[C@@H]1C shows selectivity ratio equal to 9.8

The compound listed as CC[C@@H](C(=O)[C@@H](C)[C@@H](O)[C@H](C)[C@@H]1O[C@@H]([C@@H](CC)C(=O)O)CC[C@@H]1C)[C@H]1O[C@]2(C=C[C@@H](O)[C@]3(CC[C@@](C)([C@H]4CC[C@](O)(CC)[C@H](C)O4)O3)O2)[C@H](C)C[C@@H]1C shows selectivity ratio equal to 31

The compound listed as C#CCNC(=O)[C@H](CC)[C@H]1CC[C@H](C)[C@H]([C@@H](C)[C@H](O)[C@H](C)C(=O)[C@H](CC)[C@H]2O[C@]3(C=C[C@@H](OC(=O)NCC)[C@]4(CC[C@@](C)([C@H]5CC[C@](O)(CC)[C@H](C)O5)O4)O3)[C@H](C)C[C@@H]2C)O1 shows selectivity ratio equal to 17

The compound listed as CCNC(=O)O[C@@H]1C=C[C@]2(O[C@H]([C@@H](CC)C(=O)[C@@H](C)[C@@H](O)[C@H](C)[C@@H]3O[C@@H]([C@@H](CC)C(=O)NCCc4ccc(F)cc4)CC[C@@H]3C)[C@@H](C)C[C@H]2C)O[C@@]12CC[C@@](C)([C@H]1CC[C@](O)(CC)[C@H](C)O1)O2 shows selectivity ratio equal to 15

The compound listed as CC[C@@H](C(=O)[C@@H](C)[C@@H](O)[C@H](C)[C@@H]1O[C@@H]([C@@H](CC)C(=O)NCCc2ccc(F)cc2)CC[C@@H]1C)[C@H]1O[C@]2(C=C[C@@H](OC(C)=O)[C@]3(CC[C@@](C)([C@H]4CC[C@](O)(CC)[C@H](C)O4)O3)O2)[C@H](C)C[C@@H]1C shows selectivity ratio equal to 12

The compound listed as CCNC(=O)O[C@@H]1C=C[C@]2(O[C@H]([C@@H](CC)C(=O)[C@@H](C)[C@@H](O)[C@H](C)[C@@H]3O[C@@H]([C@@H](CC)C(=O)OCC(F)(F)F)CC[C@@H]3C)[C@@H](C)C[C@H]2C)O[C@@]12CC[C@@](C)([C@H]1CC[C@](O)(CC)[C@H](C)O1)O2 shows selectivity ratio equal to 9.8

The compound listed as C#CCOC(=O)[C@H](CC)[C@H]1CC[C@H](C)[C@H]([C@@H](C)[C@H](O)[C@H](C)C(=O)[C@H](CC)[C@H]2O[C@]3(C=C[C@@H](O)[C@]4(CC[C@@](C)([C@H]5CC[C@](O)(CC)[C@H](C)O5)O4)O3)[C@H](C)C[C@@H]2C)O1 shows selectivity ratio equal to 13

The compound listed as C#CCNC(=O)[C@H](CC)[C@H]1CC[C@H](C)[C@H]([C@@H](C)[C@H](O)[C@H](C)C(=O)[C@H](CC)[C@H]2O[C@]3(C=C[C@@H](O)[C@]4(CC[C@@](C)([C@H]5CC[C@](O)(CC)[C@H](C)O5)O4)O3)[C@H](C)C[C@@H]2C)O1 shows selectivity ratio equal to 6.2

The compound listed as CC[C@@H](C(=O)[C@@H](C)[C@@H](O)[C@H](C)[C@@H]1O[C@@H]([C@@H](CC)C(=O)OCC(F)(F)F)CC[C@@H]1C)[C@H]1O[C@]2(C=C[C@@H](O)[C@]3(CC[C@@](C)([C@H]4CC[C@](O)(CC)[C@H](C)O4)O3)O2)[C@H](C)C[C@@H]1C shows selectivity ratio equal to 9.8
